Test system: K562 SF3B1 K700E vs K562 SF3B1 WT
Test: surviving fraction ratio K562 SF3B1 K700E / K562 SF3B1 WT (each relative to DMSO); higher = less selective killing of SF3B1 K700E cells
Conditions: 50nM; 5 days
The reader will find reported surviving fraction ratio K562 SF3B1 K700E / K562 SF3B1 WT values listed item by item below.
Field format: numeric only.

Check out these entries, answers already filled in.
In [3]: df
Out[3]:
                                smiles_data  observed
0  CC1(C)CC(=O)c2c(C(F)(F)F)nn(-c3ccc(C(N)=O)c(N[C@H]4CC[C@H](OC(=O)CN)CC4)c3)c2C1      1.18
1  Cc1ccc(-c2cc(C(F)(F)F)nn2-c2ccc(S(N)(=O)=O)cc2)cc1     0.673
2  Cc1nc(Nc2ncc(C(=O)Nc3c(C)cccc3Cl)s2)cc(N2CCN(CCO)CC2)n1      1.23
3  CS(=O)(=O)c1ccc(C(=O)Nc2ccc(Cl)c(-c3ccccn3)c2)c(Cl)c1         1

Request: Reported surviving fraction ratio K562 SF3B1 K700E / K562 SF3B1 WT, molecule CCN(CC)CCNC(=O)c1c(C)[nH]c(/C=C2\C(=O)Nc3ccc(F)cc32)c1C : ____
Result: 0.86

Request: I have this molecule here, Cn1ncnc1[C@H]1c2n[nH]c(=O)c3cc(F)cc(c23)N[C@@H]1c1ccc(F)cc1 , and I need its recorded surviving fraction ratio K562 SF3B1 K700E / K562 SF3B1 WT.
Result: 0.552

Request: // query surviving fraction ratio K562 SF3B1 K700E / K562 SF3B1 WT value for entry O=C(NOCC1CC1)c1ccc(F)c(F)c1Nc1ccc(I)cc1Cl
Result: 1.3

Request: I would be grateful if you could share the reported surviving fraction ratio K562 SF3B1 K700E / K562 SF3B1 WT for Oc1ccc(/C=C/c2cc(O)cc(O)c2)cc1 .
Result: 1

Request: Entry C#Cc1cccc(Nc2ncnc3cc(OCCOC)c(OCCOC)cc23)c1 has what surviving fraction ratio K562 SF3B1 K700E / K562 SF3B1 WT?
Result: 0.692

###

Test system: K562 SF3B1 K700E vs K562 SF3B1 WT
Experiment: surviving fraction ratio K562 SF3B1 K700E / K562 SF3B1 WT (each relative to DMSO); higher = less selective killing of SF3B1 K700E cells
Conditions: 1nM; 5 days
List of surviving fraction ratio K562 SF3B1 K700E / K562 SF3B1 WT values.
Quick one: just the number, no unit, thanks!

>>> print(df.to_string())
                                   compound  observed
0  C[C@]1(O)C[C@@H](c2nc(-c3ccc4ccc(-c5ccccc5)nc4c3)c3c(N)nccn32)C1     0.823
1  CS(=O)(=O)CCNCc1ccc(-c2ccc3ncnc(Nc4ccc(OCc5cccc(F)c5)c(Cl)c4)c3c2)o1 [lapatinib]     0.755

Request: Fill in the blank: the reported surviving fraction ratio K562 SF3B1 K700E / K562 SF3B1 WT of CN1CCN(c2nc(C3=C(c4c[nH]c5ccccc45)C(=O)NC3=O)c3ccccc3n2)CC1 [Sotrastaurin/AEB071] is ____.
Result: 0.804

Request: So what's the measured surviving fraction ratio K562 SF3B1 K700E / K562 SF3B1 WT for this one? C[C@]12CC[C@H](O)CC1=CC[C@@H]1[C@@H]2CC[C@]2(C)C(c3cccnc3)=CC[C@@H]12
Result: 0.918

Request: Find the recorded surviving fraction ratio K562 SF3B1 K700E / K562 SF3B1 WT belonging to COc1ccc(-c2cc3c(C)nc(N)nc3n([C@H]3CC[C@H](OCCO)CC3)c2=O)cn1 and report it.
Result: 1.14

Request: Which value of surviving fraction ratio K562 SF3B1 K700E / K562 SF3B1 WT has been reported for CN1CC[C@H](c2c(O)cc(O)c3c(=O)cc(-c4ccccc4Cl)oc23)[C@H](O)C1 [Flavopiridol] in the records?
Result: 0.83

Request: Consider the compound shown here: C[C@@H]1CN(CC(=O)Nc2ccc3c(c2)Cc2cccc(-c4cc(=O)cc(N5CCOCC5)o4)c2S3)C[C@H](C)O1 What is its recorded surviving fraction ratio K562 SF3B1 K700E / K562 SF3B1 WT?
Result: 1.04

###

Tested on: K562 SF3B1 K700E vs K562 SF3B1 WT
Test: surviving fraction ratio K562 SF3B1 K700E / K562 SF3B1 WT (each relative to DMSO); higher = less selective killing of SF3B1 K700E cells
Conditions: 50nM; 5 days
MEASURE: surviving fraction ratio K562 SF3B1 K700E / K562 SF3B1 WT
Give the figure by itself; no unit, no explanation.

Examples from the recorded data:
                                   compound  observed
0  COc1ccc(-c2cc3c(C)nc(N)nc3n([C@H]3CC[C@H](OCCO)CC3)c2=O)cn1     0.958
1  CS(=O)(=O)CCNCc1ccc(-c2ccc3ncnc(Nc4ccc(OCc5cccc(F)c5)c(Cl)c4)c3c2)o1 [lapatinib]      0.99
2  NC1(c2ccc(-c3nc4ccn5c(=O)[nH]nc5c4cc3-c3ccccc3)cc2)CCC1      0.61
3  CN(Cc1cnc2nc(N)nc(N)c2n1)c1ccc(C(=O)N[C@@H](CCC(=O)O)C(=O)O)cc1 [methotrexate]      3.75
4  Nc1ncn([C@H]2C[C@H](O)[C@@H](CO)O2)c(=O)n1 [decitabine]     0.964

Now for another entry.
Request: State the recorded surviving fraction ratio K562 SF3B1 K700E / K562 SF3B1 WT for this entry: CN1CC[C@H](c2c(O)cc(O)c3c(=O)cc(-c4ccccc4Cl)oc23)[C@H](O)C1 [Flavopiridol]
Result: 0.916

###

Tested on: K562 SF3B1 K700E vs K562 SF3B1 WT
Assay: surviving fraction ratio K562 SF3B1 K700E / K562 SF3B1 WT (each relative to DMSO); higher = less selective killing of SF3B1 K700E cells
Details: 1nM; 5 days
Counter-ions that a name gives are not always drawn.
surviving fraction ratio K562 SF3B1 K700E / K562 SF3B1 WT of 1 or higher: Criterion met. Under 1: Criterion not met.

MOLECULE	LABEL
C[C@@H](Oc1cc(-c2cnn(C3CCNCC3)c2)cnc1N)c1c(Cl)ccc(F)c1Cl	Criterion met

Request: Check if surviving fraction ratio K562 SF3B1 K700E / K562 SF3B1 WT >= 1 (inclusive). Item: CS(=O)(=O)c1ccc(C(=O)Nc2ccc(Cl)c(-c3ccccn3)c2)c(Cl)c1
Result: Criterion not met

Request: Is it the case that C[C@]12O[C@H](C[C@]1(O)CO)n1c3ccccc3c3c4c(c5c6ccccc6n2c5c31)CNC4=O has surviving fraction ratio K562 SF3B1 K700E / K562 SF3B1 WT reaching or exceeding 1?
Result: Criterion not met

Request: Check this molecule for surviving fraction ratio K562 SF3B1 K700E / K562 SF3B1 WT at or above 1: C=CC(=O)Nc1cc2c(Nc3ccc(F)c(Cl)c3)ncnc2cc1OCCCN1CCOCC1
Result: Criterion not met

Request: Check if surviving fraction ratio K562 SF3B1 K700E / K562 SF3B1 WT >= 1 (inclusive). Item: CO[C@H]1C[C@@H]2CC[C@@H](C)[C@@](O)(O2)C(=O)C(=O)N2CCCC[C@H]2C(=O)O[C@H]([C@H](C)C[C@@H]2CC[C@@H](OCCO)[C@H](OC)C2)CC(=O)[C@H](C)/C=C(\C)[C@@H](O)[C@@H](OC)C(=O)[C@H](C)C[C@H](C)/C=C/C=C/C=C/1C
Result: Criterion not met

Request: Quick check, surviving fraction ratio K562 SF3B1 K700E / K562 SF3B1 WT >= 1? CCCS(=O)(=O)Nc1ccc(F)c(C(=O)c2c[nH]c3ncc(Cl)cc23)c1F
Result: Criterion met

Request: Decide: surviving fraction ratio K562 SF3B1 K700E / K562 SF3B1 WT of COc1cc2c(Oc3ccc(NC(=O)C4(C(=O)Nc5ccc(F)cc5)CC4)cc3F)ccnc2cc1OCCCN1CCOCC1 >= 1?
Result: Criterion not met

Request: Given the entry COc1cc2ncnc(Nc3ccc(F)c(Cl)c3)c2cc1OCCCN1CCOCC1 , answer whether its surviving fraction ratio K562 SF3B1 K700E / K562 SF3B1 WT meets or surpasses 1.
Result: Criterion not met

Request: In plain terms: is recorded surviving fraction ratio K562 SF3B1 K700E / K562 SF3B1 WT at least 1 for CCn1c(C(=O)N(C2CC2)C2CC2)cc2c3c(ncn3C)c(Nc3cc(C)n(C)n3)nc21 ?
Result: Criterion not met

Request: Please indicate if the recorded surviving fraction ratio K562 SF3B1 K700E / K562 SF3B1 WT for Nc1ccn([C@@H]2O[C@H](CO)[C@@H](O)C2(F)F)c(=O)n1 [gemcitabine.HCl] meets or exceeds 1.
Result: Criterion not met

Request: Reported surviving fraction ratio K562 SF3B1 K700E / K562 SF3B1 WT at or above 1? Nc1nc(=S)c2[nH]cnc2[nH]1
Result: Criterion not met
